Measured values drawn from patent US9340577B2 for this set.

- System Name: A*0202 (Homo sapiens, UniProt P04439, D140Y/D185E/D98H/E176V/E277Q/G131W/G231S/I119L/I121R/I166T/I218V/L180W/L300P/L318F/N151K/N90K/P208A/P217A/Q67R/Q86G/Q94H/R138H/R169H/T345S)
- Measurement Notes: biochemical
- Format: binding
No end group written: not given here.
Assay Metric: IC50 (nM)

Sequence Input	Numeric Readout
RILQQPLFI [Peptide 1545.03]	9910
CQAHNSDTGV [Peptide 9013.0190]	339
TLGIMIGVLV [Peptide 9013.0251]	87
QLSNGNRTLV [Peptide 9013.0229]	66
VLAEAMGQV [Peptide 1539.05]	1.7
AIFGVNPTV [Peptide 1578.25]	21
SLYTHLQCL [Peptide 1578.20]	2.6
FLSALKLFL [Peptide 1578.17]	2.8
FLSHVKIPV [Peptide 1578.55]	4
RLQLSNGNRTV [Peptide 9013.0328]	128
KLMSNLLSI [Peptide 1578.21]	2.7
LLTFWNPPTTV [Peptide 9013.0259]	67
LLTFWNPPTV [Peptide 9013.0120]	10
VLAEAMSKA [Peptide 1539.07]	3.4
GLTVGIMIGVL [Peptide 9013.0343]	914
VQWAYDHDI [Peptide 86.0205]	6840
ALAFTCEPET [Peptide 9013.0156]	206
QLSNGNRTL [Peptide 9013.0050]	39
QQIEFVSFL [Peptide 1578.16]	3.3
LQGAIISFV [Peptide 1578.28]	6.6
QLHTQVLFI [Peptide 9013.0103]	22
FQYAQLADV [Peptide 1578.36]	3.7
AVAFTCEPEV [Peptide 9013.0155]	233
KLTQLCVTL [Peptide 1537.02]	2.7
GVLVGVALV [Peptide 9013.0110]	6090
WQRLLLTASLV [Peptide 9013.0253]	246
LLFWNPPTTA [Peptide 9013.0123]	1.3
NLAEGKEVLL [Peptide 9013.0134]	9.2

###

- System Name: DRB1*1201 (Homo sapiens, UniProt P01903+P01911, A100R/A169T/D57E/D86V/F55L/H45Y/K41T/L162R/M171V/P40S/Q125H/Q178H/Q39Y/Q99D/R42G/S66L/T262R/V114A/V67L/W38E/Y59H/Y61H/Y89S)
- Measurement Notes: biochemical
- Type: binding
pIC50: −log10 of the molar value. No end group written: not given here.

Sequence Input	Value Comparator	pIC50
RYRFQKYKTLFVDVT [Peptide 90.0019]	=	5.35
KTLIKPATLYAHIQC [Peptide 89.0083]	=	6.37
LIRMECAIMYTARQM [Peptide 90.0022]	=	6.70
GQRVPVSHSFPHPLY [Peptide 68.0005]	=	5.26
TPEWIQRLTIIQHGI [Peptide 89.0030]	=	6.38
KSRLQGGVLVNEILN [Peptide 68.0046]	=	5.02
ESDMAFEYALLADSN [Peptide 90.0055]	=	4.79
GERLEVDTELSPRLQ [Peptide 90.0048]	<	4.70
DHDITDDSDIAYKYA [Peptide 90.0117]	<	4.70
SADDLRAFQQLFLNT [Peptide 1543.07]	=	6.52
PRWLCAGALVLAGGF [Peptide 68.0083]	=	5.34
RLNVCQDKILTHYEN [Peptide 90.0160]	=	6.59
TRPRTLHELCEVLEE [Peptide 1543.42]	<	4.70
